Entry source: patent US12083101B2

- Tested Target: Avi-humanTEAD4 217-434 / Cy5 labeled humanYAP 60-100 (Homo sapiens (Human))
- Sequence (Q15561 217-434): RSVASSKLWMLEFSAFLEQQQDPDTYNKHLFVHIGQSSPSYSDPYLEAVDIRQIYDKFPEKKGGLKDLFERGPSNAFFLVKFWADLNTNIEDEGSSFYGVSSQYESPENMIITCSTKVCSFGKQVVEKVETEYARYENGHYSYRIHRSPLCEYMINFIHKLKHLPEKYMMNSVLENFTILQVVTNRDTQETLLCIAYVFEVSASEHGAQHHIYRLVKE
- Run Description: TR-FRET YAP-TEAD4 in-vitro biochemical assay
- Condition Parameters: 1 nM Avi-humanTEAD4 217-434, 20 nM Cy5-humanYAP 60-100, 1 h room temperature
So basically: is IC50 under 6 nM? Then TRUE. Not under? Then FALSE.

Below are worked cases with known answers.
compound="NC(=O)c1ccc(OC(F)F)c(F)c1-c1c(Cl)c(F)cc2c1C[C@@](CNC1CCC(CO)CC1)(c1ccccc1)O2 (single isomer, unassigned) [Example 61a]" qualitative_label=FALSE
compound="Fc1cc2c(c(-c3ccccc3)c1Cl)C[C@](c1ccccc1)([C@@H]1C[C@@H](F)CN1)O2 [Example 160]" qualitative_label=FALSE
compound="C[C@H]1c2c(cc(F)c(Cl)c2-c2c(C(N)=O)ccc(OCCO)c2F)O[C@]1(CNC1CCC1)c1ccccc1 (atropisomer, axis not shown) [Example 118]" qualitative_label=TRUE
compound="COCCOc1ccc(C(N)=O)c(-c2c(Cl)c(F)cc3c2[C@H](C)[C@@](CN[C@H]2CC[C@](C)(O)CC2)(c2ccccn2)O3)c1F (atropisomer, axis not shown) [Example 126]" qualitative_label=TRUE
compound="CNC[C@]1(c2ccccc2)Oc2cc(F)c(Cl)c(-c3c(C(=O)NC)ccc(OCCO)c3F)c2[C@@H]1C (atropisomer, axis not shown) [Example 113]" qualitative_label=TRUE

// switching to the query compound
For this compound, is IC50 lower than 6 nM? CS(=O)(=O)[C@H]1CC[C@H](NC[C@@]2(c3ccccc3)Cc3c(cc(F)c(Cl)c3-c3c(C(N)=O)ccc(OC(F)F)c3F)O2)CC1 [Example 54b]
FALSE
